# system: KCNQ2/3 channels (Homo sapiens, UniProt O43525+O43526)
# Construct: expressed in transfected cells
# Sequence (O43526 whole entry): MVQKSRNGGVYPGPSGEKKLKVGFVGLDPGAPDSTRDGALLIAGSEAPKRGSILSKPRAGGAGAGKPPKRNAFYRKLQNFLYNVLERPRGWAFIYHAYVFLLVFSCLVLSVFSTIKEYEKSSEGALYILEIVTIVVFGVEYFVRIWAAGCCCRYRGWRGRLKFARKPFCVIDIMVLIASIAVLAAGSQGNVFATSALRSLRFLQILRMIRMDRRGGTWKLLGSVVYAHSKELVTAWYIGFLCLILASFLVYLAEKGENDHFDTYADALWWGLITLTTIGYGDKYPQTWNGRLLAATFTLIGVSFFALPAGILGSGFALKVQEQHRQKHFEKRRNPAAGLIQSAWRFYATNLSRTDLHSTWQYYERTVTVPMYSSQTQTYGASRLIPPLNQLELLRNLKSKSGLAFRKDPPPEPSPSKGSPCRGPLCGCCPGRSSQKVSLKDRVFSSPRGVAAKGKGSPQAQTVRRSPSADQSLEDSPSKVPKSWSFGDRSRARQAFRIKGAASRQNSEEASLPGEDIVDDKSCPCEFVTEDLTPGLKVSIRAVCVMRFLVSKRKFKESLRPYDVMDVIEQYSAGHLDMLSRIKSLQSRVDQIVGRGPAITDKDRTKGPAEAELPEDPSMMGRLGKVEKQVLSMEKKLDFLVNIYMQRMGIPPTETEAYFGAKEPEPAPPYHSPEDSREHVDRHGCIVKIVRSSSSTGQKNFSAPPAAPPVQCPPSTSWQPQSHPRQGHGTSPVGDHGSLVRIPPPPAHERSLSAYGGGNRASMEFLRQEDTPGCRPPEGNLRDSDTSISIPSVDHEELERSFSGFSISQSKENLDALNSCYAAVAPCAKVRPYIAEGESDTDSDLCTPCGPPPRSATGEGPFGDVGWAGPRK
# Sequence (O43525 whole entry): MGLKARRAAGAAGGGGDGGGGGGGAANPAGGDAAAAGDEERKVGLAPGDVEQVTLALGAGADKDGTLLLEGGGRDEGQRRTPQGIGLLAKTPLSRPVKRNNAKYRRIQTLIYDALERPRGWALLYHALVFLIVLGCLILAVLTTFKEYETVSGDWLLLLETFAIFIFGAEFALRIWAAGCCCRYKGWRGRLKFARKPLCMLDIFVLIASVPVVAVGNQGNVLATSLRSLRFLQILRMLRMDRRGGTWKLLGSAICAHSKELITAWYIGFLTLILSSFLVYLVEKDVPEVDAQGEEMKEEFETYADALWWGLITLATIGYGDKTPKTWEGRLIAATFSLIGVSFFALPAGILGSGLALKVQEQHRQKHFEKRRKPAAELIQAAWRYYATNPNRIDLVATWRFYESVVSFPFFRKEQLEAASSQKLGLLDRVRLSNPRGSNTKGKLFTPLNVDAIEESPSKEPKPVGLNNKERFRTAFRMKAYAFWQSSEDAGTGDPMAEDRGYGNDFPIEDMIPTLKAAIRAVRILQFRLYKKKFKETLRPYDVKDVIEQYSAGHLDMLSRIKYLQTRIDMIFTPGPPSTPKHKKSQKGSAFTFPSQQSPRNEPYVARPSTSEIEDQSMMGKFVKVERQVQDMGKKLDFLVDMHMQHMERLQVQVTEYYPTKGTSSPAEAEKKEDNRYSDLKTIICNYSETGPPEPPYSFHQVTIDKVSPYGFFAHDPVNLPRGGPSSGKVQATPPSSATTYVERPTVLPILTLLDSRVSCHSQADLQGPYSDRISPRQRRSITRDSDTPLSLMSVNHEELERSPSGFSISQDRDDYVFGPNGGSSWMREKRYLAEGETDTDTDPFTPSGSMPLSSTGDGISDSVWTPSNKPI
# procedure-summary: Fluorescence assay using a voltage sensitive dye (fluorimetry)
# Type: cell-based
# run-parameters: CHO-K1 cells expressing KCNQ2/3; IC50 where % efficacy is negative; read-out: Fluorimetry EC50/IC50
Measured log10 of EC50 by item
Scale type: logarithmic (base 10). Underlying EC50 unit: nM.

{"compound": "CCOc1nc(N2CCOCC2)cc(C)c1C(=O)NCc1ccc(C(F)(F)F)cc1", "log10 of EC50": 2.04}
{"compound": "CCN(C)c1nc(N2CCOC[C@H]2C)cc(C)c1C(=O)NCc1ccc(F)cc1", "log10 of EC50": 2.30}

Return log10 of EC50 measured with KCNQ2/3 channels (Homo sapiens, UniProt O43525+O43526) given this compound: CCSc1nc(N2CCOCC2)cc(C)c1C(=O)NCCC(O)C(C)C (stereo not drawn) 3.24

Return log10 of EC50 measured with KCNQ2/3 channels (Homo sapiens, UniProt O43525+O43526) given this compound: CCCC1COCCN1c1cc(C)c(C(=O)NCc2cccc(F)c2)c(SCC)n1 (stereo not drawn) 1.69

Return log10 of EC50 measured with KCNQ2/3 channels (Homo sapiens, UniProt O43525+O43526) given this compound: CCCCCCNC(=O)c1c(C)cc(N2CCOCC2)nc1SCC 2.61

Return log10 of EC50 measured with KCNQ2/3 channels (Homo sapiens, UniProt O43525+O43526) given this compound: CCSc1nc(N2CCO[C@H](C)C2)cc(C)c1C(=O)NCc1cccc(F)c1 2.89

Return log10 of EC50 measured with KCNQ2/3 channels (Homo sapiens, UniProt O43525+O43526) given this compound: CCSc1nc(N2CCCCC2)cc(C)c1C(=O)NCc1cccc(F)c1 2.12

Return log10 of EC50 measured with KCNQ2/3 channels (Homo sapiens, UniProt O43525+O43526) given this compound: CCSc1nc(N2CCOCC2)cc(C)c1C(=O)NCc1ccc(COC)c(F)c1 2.72

Return log10 of EC50 measured with KCNQ2/3 channels (Homo sapiens, UniProt O43525+O43526) given this compound: CCSc1nc(N2CCOCC2)cc(C)c1C(=O)NCCCC(C)(C)C 1.62

----------
# system: KCNQ2/3 channels (Homo sapiens, UniProt O43525+O43526)
# Construct: expressed in transfected cells
# procedure-summary: Fluorescence assay using a voltage sensitive dye (fluorimetry)
# Format: cell-based
# run-parameters: CHO-K1, plateau effect relative to saturated retigabine (50 μM) = 100%; CHO-K1 cells expressing KCNQ2/3; negative values = antagonistic; read-out: Fluorimetry % efficacy (retigabine = 100%)
measure: Emax (%)
State just the number; it will be interpreted in %.

// below: answered compounds
{"compound": "CSc1nc(N2CCOC[C@H]2C)cc(C)c1C(=O)NCCCC(C)(C)C", "Emax / %": 236}
{"compound": "CCSc1nc(N(CCOC)CCOC)cc(C)c1C(=O)NCc1cccc(F)c1", "Emax / %": 145}
{"compound": "Cc1cc(N2CCOC[C@H]2C)nc(C2CC2)c1C(=O)NCc1ccc(Cl)cc1", "Emax / %": 182}
{"compound": "CCSc1nc(N2CCOCC2)cc(C)c1C(=O)NCCCC(C)(C)C", "Emax / %": 244}
{"compound": "CCSc1nc(N2CCO[C@H](CO)C2)cc(C)c1C(=O)NCc1cccc(F)c1", "Emax / %": 53}

Return Emax measured with KCNQ2/3 channels (Homo sapiens, UniProt O43525+O43526) given this compound: Cc1cc(N2CCOCC2)nc(C(C)C)c1C(=O)NCc1ccc(Cl)cc1 173

Return Emax measured with KCNQ2/3 channels (Homo sapiens, UniProt O43525+O43526) given this compound: CCN(C)c1nc(N2CCOCC2)cc(C)c1C(=O)NCCCC(F)(F)F 207

Return Emax measured with KCNQ2/3 channels (Homo sapiens, UniProt O43525+O43526) given this compound: CCSc1nc(N2CC(=O)C2)cc(C)c1C(=O)NCc1cccc(F)c1 130

Return Emax measured with KCNQ2/3 channels (Homo sapiens, UniProt O43525+O43526) given this compound: CCOc1nc(N2CCOCC2)cc(C)c1C(=O)NCc1cc(F)cc(F)c1 134

Return Emax measured with KCNQ2/3 channels (Homo sapiens, UniProt O43525+O43526) given this compound: CCSc1nc(N2CCC3(COC3)C2)cc(C)c1C(=O)NCc1cccc(F)c1 56

Return Emax measured with KCNQ2/3 channels (Homo sapiens, UniProt O43525+O43526) given this compound: COc1nc(N2CCOC[C@H]2C)cc(C)c1C(=O)NCc1ccc(Cl)cc1 191

Return Emax measured with KCNQ2/3 channels (Homo sapiens, UniProt O43525+O43526) given this compound: CSc1nc(N2CCOCC2)cc(C)c1C(=O)NCc1ccc(C(F)(F)F)cc1 127

Return Emax measured with KCNQ2/3 channels (Homo sapiens, UniProt O43525+O43526) given this compound: CCSc1nc(NC)cc(C)c1C(=O)NCc1cccc(F)c1 37

Return Emax measured with KCNQ2/3 channels (Homo sapiens, UniProt O43525+O43526) given this compound: CCSc1nc(N2CCCOCC2)cc(C)c1C(=O)NCc1cccc(F)c1 173

Return Emax measured with KCNQ2/3 channels (Homo sapiens, UniProt O43525+O43526) given this compound: CCSc1nc(N2CCOCC2)cc(C)c1C(=O)NCCCc1ccccc1F 206

Return Emax measured with KCNQ2/3 channels (Homo sapiens, UniProt O43525+O43526) given this compound: CCSc1nc(N2CCOCC2)cc(C)c1C(=O)NCc1ccc(F)c(OC)c1 94

Return Emax measured with KCNQ2/3 channels (Homo sapiens, UniProt O43525+O43526) given this compound: CCSc1nc(N2CCOCC2)cc(C)c1C(=O)NCCCC1(C)CC1 226

Return Emax measured with KCNQ2/3 channels (Homo sapiens, UniProt O43525+O43526) given this compound: CCSc1nc(N2CCOCC2)cc(C)c1C(=O)NCCCC#N 70

Return Emax measured with KCNQ2/3 channels (Homo sapiens, UniProt O43525+O43526) given this compound: CCC(C)c1nc(N2CCOC[C@H]2C)cc(C)c1C(=O)NCCCC(C)(C)C (stereo partly shown) 242

----------
# system: KCNQ2/3 channels (Homo sapiens, UniProt O43525+O43526)
# Construct: expressed in transfected cells
# procedure-summary: Fluorescence assay using a voltage sensitive dye (fluorimetry)
# Assay type: cell-based
# run-parameters: CHO-K1 cells expressing KCNQ2/3; IC50 where % efficacy is negative; read-out: Fluorimetry EC50/IC50
Okay, here is how we bin by EC50: Low = under 100 nM, Medium = from 100 nM up to 300 nM, High = 300 nM and over

Illustrative cases are given below, each with its answer.
{"molecule": "CCSc1nc(N2CCOCC2)cc(C)c1C(=O)NCc1cccc(C)c1 [Example 164]", "assigned-class": "Medium"}
{"molecule": "CCSc1nc(N2CCOC[C@@H]2C)cc(C)c1C(=O)NCc1cccc(F)c1 [Example 296]", "assigned-class": "Medium"}
{"molecule": "Cc1cc(N2CCOCC2)nc(C(C)C)c1C(=O)NCCC(O)C(F)(F)F (racemic) [Example X6]", "assigned-class": "High"}
{"molecule": "CCCSc1nc(N2CCOCC2)cc(C)c1C(=O)NCc1cccc(F)c1 [Example 56]", "assigned-class": "Low"}
{"molecule": "CCSc1nc(N2CCOCC2)cc(C)c1C(=O)NCc1ccccc1C(F)(F)F [Example 51]", "assigned-class": "High"}
{"molecule": "Cc1cc(N2CCOCC2)nc(OCC2CC2)c1C(=O)NCc1ccc(F)cc1 [Example 276]", "assigned-class": "Medium"}
{"molecule": "CCC(C)c1nc(N2CCOC[C@H]2C)cc(C)c1C(=O)NCc1ccc(F)cc1 (stereo partly drawn) [Example 194]", "assigned-class": "Low"}
{"molecule": "CCSc1nc(N2CCOCC2)cc(C)c1C(=O)NCCOC(C)(C)C [Example 83]", "assigned-class": "High"}
{"molecule": "Cc1cc(N2CCOC[C@H]2C)nc(C2CC2)c1C(=O)NCCCC(C)(C)C [Example 198]", "assigned-class": "Low"}
{"molecule": "CCSc1nc(N2CCCCCC2)cc(C)c1C(=O)NCc1cccc(F)c1 [Example 136]", "assigned-class": "Medium"}

Class for COc1nc(N2CCOCC2)cc(C)c1C(=O)NCc1cccc(F)c1 [Example 19] ? High

Class for CCCCOc1nc(N2CCOCC2)cc(C)c1C(=O)NCc1cccc(F)c1 [Example 110] ? Low

Class for CCSc1nc(N(C)CC2CCCOC2)cc(C)c1C(=O)NCc1cccc(F)c1 (stereo not drawn) [Example 175] ? High
